Cited source: ChEMBL document CHEMBL1909294

Tested on: Hepatotoxicity

compound: COc1cccc(C2(O)CCCCC2CN(C)C)c1 (stereo unspecified)
HepSE_bilirubinemia: 0
//
compound: CC(=O)OCC(=O)[C@@]12OC(C)(C)O[C@@H]1C[C@H]1[C@@H]3C[C@H](F)C4=CC(=O)C=C[C@]4(C)[C@@]3(F)[C@@H](O)C[C@@]12C [FLUOCINONIDE]
HepSE_bilirubinemia: 0
//
compound: Clc1ccc(CSC(Cn2ccnc2)c2ccc(Cl)cc2Cl)cc1 (stereo unspecified)
HepSE_bilirubinemia: 0
//
compound: NS(=O)(=O)c1cc2c(cc1C(F)(F)F)NCNS2(=O)=O [HYDROFLUMETHIAZIDE]
HepSE_bilirubinemia: 0
//
compound: CN1CCN(CCCN2c3ccccc3Sc3ccc(Cl)cc32)CC1
HepSE_bilirubinemia: 0
//
compound: NS(=O)(=O)c1cc2c(cc1C(F)(F)F)NC(Cc1ccccc1)NS2(=O)=O (stereo unspecified) [BENDROFLUMETHIAZIDE]
HepSE_bilirubinemia: 0
//
compound: C[C@H](CS)C(=O)N1CCC[C@H]1C(=O)O
HepSE_bilirubinemia: 0
//
compound: CC(C)(C#N)c1cc(Cn2cncn2)cc(C(C)(C)C#N)c1
HepSE_bilirubinemia: 0
//
compound: CC[C@@H](C(N)=O)N1CCCC1=O
HepSE_bilirubinemia: 0
//
compound: CC(=O)CCCCn1c(=O)c2c(ncn2C)n(C)c1=O
HepSE_bilirubinemia: 0
//
compound: CC1(C)S[C@@H]2[C@H](NC(=O)C(C(=O)O)c3ccccc3)C(=O)N2[C@H]1C(=O)O (stereo partly specified)
HepSE_bilirubinemia: 0
//
compound: COc1c(N2C[C@@H]3CCCN[C@@H]3C2)c(F)cc2c(=O)c(C(=O)O)cn(C3CC3)c12
HepSE_bilirubinemia: 1
//
compound: CC(CCc1ccccc1)NCC(O)c1ccc(O)c(C(N)=O)c1 (stereo unspecified)
HepSE_bilirubinemia: 0
//
compound: C[C@@H](O)[C@H]1C(=O)N2C(C(=O)O)=C(S[C@@H]3CN[C@H](C(=O)Nc4cccc(C(=O)O)c4)C3)[C@H](C)[C@H]12
HepSE_bilirubinemia: 0
//
compound: CSCC[C@H](NC(=O)[C@H](Cc1ccc(OS(=O)(=O)O)cc1)NC(=O)[C@@H](N)CC(=O)O)C(=O)NCC(=O)N[C@@H](Cc1c[nH]c2ccccc12)C(=O)N[C@@H](CCSC)C(=O)N[C@@H](CC(=O)O)C(=O)N[C@@H](Cc1ccccc1)C(N)=O [SINCALIDE]
HepSE_bilirubinemia: 0
//
compound: CCN(CCO)CCCC(C)Nc1ccnc2cc(Cl)ccc12 (stereo unspecified) [HYDROXYCHLOROQUINE]
HepSE_bilirubinemia: 0

###

// endpoint HepSE_jaundice / system Hepatotoxicity

molecule: CC(=O)N(CC(O)CO)c1c(I)c(C(=O)NCC(O)CO)c(I)c(C(=O)NCC(O)CO)c1I (stereo not given) [IOHEXOL]
test-system: Hepatotoxicity
HepSE_jaundice: 0

molecule: CCn1nc(C(=O)O)c(=O)c2cc3c(cc21)OCO3 [CINOXACIN]
test-system: Hepatotoxicity
HepSE_jaundice: 0

molecule: NS(=O)(=O)c1cc2c(cc1C(F)(F)F)NC(Cc1ccccc1)NS2(=O)=O (stereo not given) [BENDROFLUMETHIAZIDE]
test-system: Hepatotoxicity
HepSE_jaundice: 1

molecule: CCOC(=O)c1ncn2c1CN(C)C(=O)c1cc(F)ccc1-2 [FLUMAZENIL]
test-system: Hepatotoxicity
HepSE_jaundice: 0

molecule: c1cnc2cc3c(cc2n1)[C@@H]1CNC[C@H]3C1 [VARENICLINE]
test-system: Hepatotoxicity
HepSE_jaundice: 0
